B1: ESR2 (parent)
chain: KSCQACRLRKCYEVGMVKCGSRRE

Variants of: B1
Experiment: protein stability index of a GFP-peptide fusion (GPS, HEK-293T) (PSI 1-6); higher = more stable;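 note: lentivirally expressed fusions sorted by FACS into six bins by GFP to DsRed ratio, PSI derived from sequencing read proportions per bin multiplied by bin number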
Settings: c terminus: a fixed tail appended
property label: protein stability index

>>> meas_value("E13R")
1.95
>>> meas_value("M16P")
1.96
>>> meas_value("G15T")
2.03
>>> meas_value("G20F")
2.01
